Measured pEC50, listed per entry.
molecular target: APOL1 G2 (Homo sapiens, UniProt O14791, DEL388-389); assay: APOL1 G2 HEK293 rescue of cell death caused by overexpression of APOL1 (CellTiter-Glo); conditions: HEK293/T-REx APOL1 G2 clone #2, doxycycline induction, 17 hours, CellTiter-Glo luminescence; reversal of cell death; geometric mean of at least 2 assay runs
Sequence (O14791 with tags, fused parts or gaps DEL388-389): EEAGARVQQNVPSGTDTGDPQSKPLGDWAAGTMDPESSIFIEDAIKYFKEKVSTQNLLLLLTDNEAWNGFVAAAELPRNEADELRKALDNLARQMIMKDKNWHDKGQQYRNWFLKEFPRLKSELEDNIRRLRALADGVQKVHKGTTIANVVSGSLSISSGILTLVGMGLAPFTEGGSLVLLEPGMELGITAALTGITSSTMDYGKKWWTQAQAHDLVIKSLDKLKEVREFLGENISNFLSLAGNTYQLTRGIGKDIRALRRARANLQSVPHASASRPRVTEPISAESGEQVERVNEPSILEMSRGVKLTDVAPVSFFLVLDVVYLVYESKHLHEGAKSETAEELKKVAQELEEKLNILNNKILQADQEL
Schema: pEC50 number; meaning minus log10 of the concentration expressed in molar units.

Study these solved cases before continuing.
C[C@@H]1C[C@H](COc2ccc(S(=O)(=O)CCCS(C)(=O)=O)cc2)CN1C1CCc2ccc(C#N)cc2C1 (single isomer, unassigned) [Compound 36] ... 7.44
C[C@@H]1CN(CC(O)c2cccc(Cl)c2)C[C@H]1COc1ccc(S(C)(=O)=O)cc1 (single isomer, unassigned) [Compound 144] ... 6.54
CS(=O)(=O)c1ccc(OC[C@@H]2CCCN(C3CCc4ccc(Cl)cc4C3)C2)cc1 (some centres unmarked) [Compound 131] ... 6.00

Query block: Give the reported pEC50 for this compound. C[C@@H]1C[C@H](COc2ccc(S(=O)(=O)CCCS(C)(=O)=O)cc2)CN1C1CCc2c(C#N)cccc2C1 (some centres unmarked) [Compound 40]
Result block: 7.13

Query block: Give the reported pEC50 for this compound. `Cc1c(C#N)cc(Cl)cc1CCN1C[C@@H](CO)[C@H](COc2ccc(S(C)(=O)=O)cc2)C1`
Result block: 6.51

Query block: Give the reported pEC50 for this compound. C[C@@H]1CN(C(CO)Cc2cccc(Cl)c2)C[C@H]1COc1ccc(S(C)(=O)=O)cc1 (single isomer, unassigned) [Compound 117]
Result block: 6.12

Query block: Give the reported pEC50 for this compound. C[C@@H]1C[C@H](COc2ccc(S(=O)(=O)CCO)cc2)CN1C1CCc2c(C#N)cc(Cl)cc2C1 (single isomer, unassigned) [Compound 56]
Result block: 6.73

Query block: Give the reported pEC50 for this compound. CC(Cc1cc(Cl)cc(C#N)c1)N1C[C@@H](COc2ccc(S(C)(=O)=O)cc2)[C@H](C)C1 (some centres unmarked) [Compound 17]
Result block: 6.28

Query block: Give the reported pEC50 for this compound. C[C@@H]1C[C@H](COc2ccc(S(=O)(=O)CCCS(C)(=O)=O)cc2)CN1C1CCc2ccc(Cl)cc2C1 (some centres unmarked) [Compound 52]
Result block: 7.06

Query block: Give the reported pEC50 for this compound. `C[C@@H]1CN(CCc2cc(Cl)cc(C#N)c2)C[C@H]1COc1cc(F)c(S(C)(=O)=O)c(F)c1`
Result block: 6.78

Query block: Give the reported pEC50 for this compound. C[C@@H]1C[C@H](COc2ccc(S(=O)(=O)CCO)cc2)CN1C1CCc2c(C#N)cc(Cl)cc2C1 (single isomer, unassigned) [Compound 57]
Result block: 6.58

Query block: Give the reported pEC50 for this compound. C[C@@H]1C[C@H](COc2ccc(S(=O)(=O)CCO)cc2)CN1C1CCc2ccc(Cl)cc2C1 (some centres unmarked) [Compound 61]
Result block: 7.20
